protocol.summary: Therapeutic index in infected mice: 4-day Peters test activity versus semi-chronic toxicity (DL 50)
Type: in vivo, souris Swiss mâles
setup.conditions: mouse, in vivo, ratio of activity to toxicity under identical conditions, intraperitoneal or subcutaneous, twice a day for 4 days, read-out: Index thérapeutique
// reported selectivity ratio for each item listed
value.kind: selectivity ratio

{"compound": "C[N+]1(CCCCCCCCCCCCCCCC[N+]2(C)CCCC2CO)CCCC1CO (centres unmarked)", "experimental.result": 22}
{"compound": "C[N+]1(CCCCCCCCCCCCCCCC[N+]2(C)CCCC(CO)C2)CCCC(CO)C1 (centres unmarked)", "experimental.result": 17}

###

System: Babesia Bovis, Babesia Canis
protocol.summary: In vitro anti-Babesia activity, (3H) hypoxanthine incorporation
Format: cell-based
setup.conditions: class of ID 50 for (3H) hypoxanthine incorporation; read-out: Activité/ Babesia à 10 millimole
pIC50: −log10 of the molar value.
// reported pIC50 for each item listed
value.kind: pIC50

{"compound": "CCC[N+](C)(CC)CCCCCCCCCCCCCCCC[N+](C)(CC)CCC (stereo not drawn)", "target.of.assay": "Babesia Bovis, Babesia Canis", "experimental.result": "7.00 to 8.00"}
{"compound": "CCC[N+](CCC)(CCO)CCCCCCCCCCCCCCCCCCCC[N+](CCC)(CCC)CCO", "target.of.assay": "Babesia Bovis, Babesia Canis", "experimental.result": "> 8.00"}
{"compound": "CCC[N+](C)(CC)CCCCCCCCCCCCCCCCCC[N+](C)(CC)CCC (stereo not drawn)", "target.of.assay": "Babesia Bovis, Babesia Canis", "experimental.result": "> 8.00"}
{"compound": "C[N+]1(CCCCCCCCCCCCCCCC[N+]2(C)CCOCC2)CCOCC1", "target.of.assay": "Babesia Bovis, Babesia Canis", "experimental.result": "> 8.00"}
{"compound": "CCC[N+](CCC)(CCCCCCCCCCCCCC[N+](CCC)(CCC)CCOCC)CCOCC", "target.of.assay": "Babesia Bovis, Babesia Canis", "experimental.result": "> 8.00"}
{"compound": "CCC[N+](CCC)(CCO)CCCCCCCCCCCCCC[N+](CCC)(CCC)CCO", "target.of.assay": "Babesia Bovis, Babesia Canis", "experimental.result": "7.00 to 8.00"}
{"compound": "CCC[N+](CCC)(CCC)CCCCCCCCCCCCCC[N+](CCC)(CCC)CCC", "target.of.assay": "Babesia Bovis, Babesia Canis", "experimental.result": "6.00 to 7.00"}
{"compound": "C#CC[N+](C)(C)CCCCCCCCCCCCCC[N+](C)(C)CC#C", "target.of.assay": "Babesia Bovis, Babesia Canis", "experimental.result": "7.00 to 8.00"}
{"compound": "CCC[N+](CCC)(CCC)CCCCCCCCCCCCCCCCCCCCCCCC[N+](CCC)(CCC)CCC", "target.of.assay": "Babesia Bovis, Babesia Canis", "experimental.result": "6.00 to 7.00"}
{"compound": "C[N+]1(CCCCCCCCCCCCCCCC[N+]2(C)CCCC2)CCCC1", "target.of.assay": "Babesia Bovis, Babesia Canis", "experimental.result": "> 8.00"}
{"compound": "CCC[N+](C)(CC)CCCCCCCCCCCCCC[N+](C)(CC)CCC (stereo not drawn)", "target.of.assay": "Babesia Bovis, Babesia Canis", "experimental.result": "7.00 to 8.00"}
{"compound": "CCC[N+](C)(CC)CCCCCCCCCCCCCCCCCCCC[N+](C)(CC)CCC (stereo not drawn)", "target.of.assay": "Babesia Bovis, Babesia Canis", "experimental.result": "7.00 to 8.00"}
{"compound": "CCC[N+](CCC)(CCO)CCCCCCCCCCCCCCCC[N+](CCC)(CCC)CCO", "target.of.assay": "Babesia Bovis, Babesia Canis", "experimental.result": "7.00 to 8.00"}
{"compound": "CCCCCCCCCCCC[N+](C)(C)CCCCCCCCCCCCCCCCCC[N+](C)(C)CCCCCCCCCCCC", "target.of.assay": "Babesia Bovis, Babesia Canis", "experimental.result": "6.00 to 7.00"}
{"compound": "CCC[N+](C)(CC)CCCCCCCCCCCCCCCCC[N+](C)(CC)CCC (stereo not drawn)", "target.of.assay": "Babesia Bovis, Babesia Canis", "experimental.result": "7.00 to 8.00"}
{"compound": "CC[N+](C)(CC)CCCCCCCCCCCCCCCCCCCCC[N+](C)(CC)CC", "target.of.assay": "Babesia Bovis, Babesia Canis", "experimental.result": "> 8.00"}
{"compound": "CCC[N+](CCC)(CCC)CCCCCCCCCCCCCCCCCCCC[N+](CCC)(CCC)CCC", "target.of.assay": "Babesia Bovis, Babesia Canis", "experimental.result": "6.00 to 7.00"}
{"compound": "CCC[N+](C)(CC)CCCCCCCCCCCCCCCCCCCCCC[N+](C)(CC)CCC (stereo not drawn)", "target.of.assay": "Babesia Bovis, Babesia Canis", "experimental.result": "7.00 to 8.00"}
